Task for the reader: assign each of the following molecules its reported melting point.

Read the entry O=C(CC1CCN(Cc2ccccc2)CC1)c1ccc(O)cc1 and write its reported melting point.
197 to 198 °C

Read the entry CN(C)[C@@H]1CN2C(=O)N(c3cc(Cl)cc(Cl)c3)C(=O)[C@@]2(Cc2ccc(Br)cc2)C1 and write its reported melting point.
54 °C

Read the entry COc1cccc(OC(=O)NC2C(=O)N(CCC(C)C)c3cc(Cl)ccc3N(c3ccccc3)C2=O)c1 (centres undefined) and write its reported melting point.
129 to 130 °C

Read the entry CN1C(=O)c2cccnc2Nc2cc(C(F)(F)F)ccc21 and write its reported melting point.
169 to 172 °C

Read the entry COC(=O)c1cncc(OCc2nc(-c3ccccc3)oc2C)c1 and write its reported melting point.
119 to 120 °C

Read the entry Cc1c[nH]c2c(Sc3nc4cc(Cl)ccc4[nH]3)ccc(N)c12 and write its reported melting point.
229 to 230 °C

Read the entry CCOC(=O)Cn1c(=O)c(=O)[nH]c2cc(C(F)(F)F)ccc21 and write its reported melting point.
250 to 251 °C

Read the entry CC(C)Cn1nc(-c2ccc(C(F)(F)F)cc2)cc(C(=O)O)c1=O and write its reported melting point.
184 to 185 °C

Read the entry CSCCCn1c(C)c(C(=O)c2cccc(Cl)c2Cl)c2cccc(Cl)c21 and write its reported melting point.
87 °C

###

Task for the reader: assign each of the following compounds its reported melting point.

Read the entry CCCCCC(=O)NS(=O)(=O)/C=C/c1cc(OC(C)C)nn1Cc1ccc(Cl)cc1Cl and write its reported melting point.
73 to 75 °C

Read the entry CN1CCN(c2ccc(C(=O)N[C@H]3CC[C@H](CCN4CCN(c5nccc6c5CCO6)CC4)CC3)cc2)CC1 and write its reported melting point.
236 °C

Read the entry O=C(CCl)c1ccc2c(c1)[nH]c1ccccc12 and write its reported melting point.
203 to 204 °C

Read the entry O=C(OCc1ccc(Cl)cc1)C(=C1NCCCS1)[N+](=O)[O-] and write its reported melting point.
119 to 120 °C

Read the entry COC(=O)NC(C)=NS(=O)(=O)NC(C)C and write its reported melting point.
193 to 196 °C

Read the entry CON=Cc1cc(-n2c(=O)cc(C(F)(F)F)n(C)c2=O)c(F)cc1Cl and write its reported melting point.
141 to 142 °C

Read the entry O=C1C(=O)c2ccccc2C2=C1SCC1(CCN(CCCOc3ccc(F)cc3)CC1)O2 and write its reported melting point.
164 to 165 °C

Read the entry CC(=O)Nc1ccc2c(c1)C(=O)CC2 and write its reported melting point.
176 to 180 °C

Read the entry CCOC(=O)CCCOc1ccc(C(N)=O)cc1 and write its reported melting point.
144 to 146 °C

Read the entry C#CC(C)(C)CCOc1ccc(Cl)cc1 and write its reported melting point.
42 to 45 °C

Read the entry COc1cc(OC)cc(C(=O)NC(NC(=NC#N)Nc2cccnc2OC)C(C)(Cl)Cl)c1 (stereo unspecified) and write its reported melting point.
198 to 199 °C

Read the entry COc1cc([N+](=O)[O-])c(N)cc1C(=O)N1CCCC1 and write its reported melting point.
159 to 162 °C

Read the entry CCOC(=O)/C=C/C=C/c1ccc(OCc2ccccc2)c(OC)c1 and write its reported melting point.
85 to 86 °C

Read the entry CCOC(=O)C1=C(COCc2nc(CCN)cs2)NC(C)=C(C(=O)OC)C1c1cccc(Cl)c1Cl (stereo unspecified) and write its reported melting point.
110 to 112 °C

Read the entry CCCN(Cc1ccc(-c2ccccc2-c2nc(=O)s[nH]2)cc1)c1nc(C)ncc1C(=O)OCC and write its reported melting point.
173 to 175 °C

Read the entry C#CCN(C(=O)OC)C1CN(C(=O)Nc2ccc(OC(F)(F)F)cc2)N=C1c1ccc(Cl)cc1 (stereo unspecified) and write its reported melting point.
184 to 185 °C

Read the entry CCCCc1nc2c(N)nc(C)c(C)c2n1CCCCNC(=O)Nc1ccccc1 and write its reported melting point.
196 to 197 °C

Read the entry C=CCOC(=O)c1cccc(C)c1OS(=O)(=O)NC(=O)Nc1nc(C)cc(OC)n1 and write its reported melting point.
127 to 128 °C

Read the entry COC(=O)[C@@H](C)NC(=O)CBr and write its reported melting point.
51 to 52 °C

Read the entry CCOc1cc(C)c(C(=O)N=C(N)N)cc1S(C)(=O)=O and write its reported melting point.
201 to 203 °C

Read the entry CC(C)(C)NC(=O)CC(Cc1cccc2ccccc12)C(=O)O (stereo unspecified) and write its reported melting point.
188 to 190 °C

Hello, the source for this data is a melting point compilation (Tetko et al.; mined from patent text by program, amines drawn as free bases though some values may be those of a salt), in case you need it.
